Data provenance: FireProtDB

B1: Guanyl-specific ribonuclease Sa, P05798 (parent)
chain: DVSGTVCLSALPPEATDTLNLIASDGPFPYSQDGVVFQNRESVLPTQSYGYYHEYTVITPGARTRGTRRIITGEATQEDYYTGDHYATFSLIDQTC

- Variants of: B1
- TEST CONDITIONS: Kitasatospora aureofaciens; pH 7; 25 °C; Thermal; CD; MOPS 30 mM; structure 1RGG; whole UniProt chain shown
REPORTED PROPERTY: ddG of mutation (higher = less stable) (kcal/mol)
Answers are plain numbers, in kcal/mol.

D25H; -0.9
E74K; -1.1
E41K; 1.2

Note to self: ddG of mutation (higher = less stable) recorded for D17K was 1.1
